target: Adenosine receptor A2b (Homo sapiens, UniProt P29275); assay: Displacement of [3H]PSB-603 from human adenosine A2B receptor expressed in CHO cell membranes
Sequence (P29275 whole entry): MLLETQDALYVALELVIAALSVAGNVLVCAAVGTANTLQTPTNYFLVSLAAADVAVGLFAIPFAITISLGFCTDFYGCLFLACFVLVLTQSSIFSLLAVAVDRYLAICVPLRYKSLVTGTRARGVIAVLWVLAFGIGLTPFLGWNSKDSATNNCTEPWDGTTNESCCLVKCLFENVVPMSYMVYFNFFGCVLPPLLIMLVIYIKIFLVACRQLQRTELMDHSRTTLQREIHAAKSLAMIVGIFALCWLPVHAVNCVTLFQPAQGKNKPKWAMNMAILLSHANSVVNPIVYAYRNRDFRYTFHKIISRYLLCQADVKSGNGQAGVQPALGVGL
Assay readout: Ki (nM)

- Chem smiles: "CCCn1c(=O)c2c(nc3n2CCCN3CCc2ccc(OCC(=O)NCCN3CCCC3)cc2)n(CCC)c1=O"
  Obs value: 193
- Chem smiles: "CCCCn1c(=O)c2c(nc3n2CCCN3CCc2ccc(OCC(=O)NCCN(CC)CC)cc2)n(CCCC)c1=O"
  Obs value: 113
- Chem smiles: "CCCCn1c(=O)c2c(nc3n2CCCN3CCc2ccc(OCC(=O)NCCN3CCCC3)cc2)n(CCCC)c1=O"
  Obs value: 66.3
- Chem smiles: "CCCn1c(=O)c2c(nc3n2CCCN3CCc2ccc(OCC(=O)NCCCN(CC)CC)cc2)n(CCC)c1=O"
  Obs value: 340
- Chem smiles: "CCCn1c(=O)c2c(nc3n2CCCN3CCc2ccc(OCC(=O)NCCCNC3CCCCC3)cc2)n(CCC)c1=O"
  Obs value: 306

###

target: Adenosine receptor A2a (Rattus norvegicus)
Sequence (P30543 whole entry): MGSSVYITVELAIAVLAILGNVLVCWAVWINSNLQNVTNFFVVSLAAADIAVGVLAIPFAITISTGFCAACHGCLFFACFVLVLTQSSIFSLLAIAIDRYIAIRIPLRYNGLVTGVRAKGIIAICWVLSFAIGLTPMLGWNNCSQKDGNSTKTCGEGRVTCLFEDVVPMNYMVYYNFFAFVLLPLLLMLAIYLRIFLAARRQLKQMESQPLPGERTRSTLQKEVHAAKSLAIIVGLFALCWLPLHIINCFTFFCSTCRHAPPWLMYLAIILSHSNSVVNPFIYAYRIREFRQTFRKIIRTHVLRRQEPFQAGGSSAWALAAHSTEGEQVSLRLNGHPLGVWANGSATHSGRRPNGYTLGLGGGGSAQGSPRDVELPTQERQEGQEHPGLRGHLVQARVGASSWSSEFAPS

- Chem smiles: "CCCn1c(=O)c2c(nc3n2CCCN3CCc2ccc(OCC(=O)NCc3ccc(Cl)cc3)cc2)n(CCC)c1=O"
  Test target: "Adenosine receptor A2a (Rattus norvegicus)"
  Unit label: "nM"
  Prefix operator: ">"
  Ki: 10000
- Chem smiles: "CCCn1c(=O)c2c(nc3n2CCCN3CCc2ccc(OCC(=O)NCCN(CC)CC)cc2)n(CCC)c1=O"
  Test target: "Adenosine receptor A2a (Rattus norvegicus)"
  Unit label: "nM"
  Prefix operator: "="
  Ki: 271
- Chem smiles: "CCCn1c(=O)c2c(nc3n2CCCN3CCc2ccc(OCC(=O)NCCN3CCOCC3)cc2)n(CCC)c1=O"
  Test target: "Adenosine receptor A2a (Rattus norvegicus)"
  Unit label: "nM"
  Prefix operator: "="
  Ki: 1120
- Chem smiles: "CCCn1c(=O)c2c(nc3n2CCCN3CCc2ccc(OCC(=O)NCCc3ccccn3)cc2)n(CCC)c1=O"
  Test target: "Adenosine receptor A2a (Rattus norvegicus)"
  Unit label: "nM"
  Prefix operator: "="
  Ki: 1360
- Chem smiles: "CCCCn1c(=O)c2c(nc3n2CCCN3CCc2ccc(OCC(=O)NCc3ccc(F)cc3)cc2)n(CCCC)c1=O"
  Test target: "Adenosine receptor A2a (Rattus norvegicus)"
  Unit label: "nM"
  Prefix operator: ">"
  Ki: 10000
- Chem smiles: "CCCCn1c(=O)c2c(nc3n2CCCN3CCc2ccc(OCC(=O)NCCCN(CC)CC)cc2)n(CCCC)c1=O"
  Test target: "Adenosine receptor A2a (Rattus norvegicus)"
  Unit label: "nM"
  Prefix operator: "="
  Ki: 318
- Chem smiles: "CCCn1c(=O)c2c(nc3n2CCCN3CCc2ccc(OCC(=O)NCCCN(CC)CC)cc2)n(CCC)c1=O"
  Test target: "Adenosine receptor A2a (Rattus norvegicus)"
  Unit label: "nM"
  Prefix operator: "="
  Ki: 303
- Chem smiles: "CCCCn1c(=O)c2c(nc3n2CCCN3CCc2ccc(OCC(=O)NCCCNC3CCCCC3)cc2)n(CCCC)c1=O"
  Test target: "Adenosine receptor A2a (Rattus norvegicus)"
  Unit label: "nM"
  Prefix operator: "="
  Ki: 1250
